Biological target: ChemR23 (CMKLR1) (Homo sapiens)
Sequence (Q99788 whole entry): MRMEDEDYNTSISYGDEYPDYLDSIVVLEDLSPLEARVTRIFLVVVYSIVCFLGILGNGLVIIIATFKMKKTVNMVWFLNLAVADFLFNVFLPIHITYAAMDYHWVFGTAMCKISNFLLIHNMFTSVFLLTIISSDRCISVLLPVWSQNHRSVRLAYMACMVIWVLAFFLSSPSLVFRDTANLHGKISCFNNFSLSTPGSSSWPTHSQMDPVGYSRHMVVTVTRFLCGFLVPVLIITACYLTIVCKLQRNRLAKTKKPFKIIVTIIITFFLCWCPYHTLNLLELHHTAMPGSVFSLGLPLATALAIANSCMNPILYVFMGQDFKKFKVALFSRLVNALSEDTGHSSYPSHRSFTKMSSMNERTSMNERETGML
Assay: PathHunter β-Arrestin assay, ChemR23 (CMKLR1), agonist and antagonist mode
pIC50: −log10 of the molar value. Peptide text beside a SMILES is read from it.
Quantity kind: pIC50

Reference set (2 entries):
Molecule	pIC50
C[C@H](N)C(=O)NCC(=O)N[C@@H](CCC(=O)O)C(=O)N[C@@H](CC(=O)O)C(=O)N1CCC[C@H]1C(=O)N[C@@H](Cc1c[nH]cn1)C(=O)N[C@@H](CO)C(=O)N[C@@H](Cc1ccccc1)C(=O)N[C@@H](Cc1ccc(O)cc1)C(=O)N[C@@H](Cc1ccccc1)C(=O)N1CCC[C@H]1C(=O)NCC(=O)N[C@@H](CCC(N)=O)C(=O)N[C@@H](Cc1ccccc1)C(=O)N[C@@H](C)C(=O)N[C@@H](Cc1ccccc1)C(=O)N[C@@H](CO)C(=O)O [C17 (human)] (H-AGEDPHSFYFPGQFAFS-OH; N-terminus and C-terminus assumed)	< 5.00
C[C@H](N)C(=O)NCC(=O)N[C@@H](CCC(=O)O)C(=O)N[C@@H](CC(=O)O)C(=O)N1CCC[C@H]1C(=O)N[C@@H](Cc1c[nH]cn1)C(=O)N[C@@H](CO)C(=O)N[C@@H](Cc1ccccc1)C(=O)N[C@@H](Cc1ccc(O)cc1)C(=O)N[C@@H](Cc1ccccc1)C(=O)N1CCC[C@H]1C(=O)NCC(=O)N[C@@H](CCC(N)=O)C(=O)N[C@@H](Cc1ccccc1)C(=O)N[C@@H](C)C(=O)N[C@@H](Cc1ccccc1)C(=O)O [C16 (human)] (H-AGEDPHSFYFPGQFAF-OH; N-terminus and C-terminus assumed)	< 5.00

Req: For CC(C)C[C@H](NC(=O)[C@H](Cc1ccccc1)NC(=O)[C@H](Cc1ccc(O)cc1)NC(=O)CNC(=O)[C@H](Cc1c[nH]cn1)NC(=O)[C@@H]1CCCN1C(=O)[C@H](CC(=O)O)NC(=O)[C@H](CCC(=O)O)NC(=O)CNC(=O)[C@H](C)N)C(=O)N1CCC[C@H]1C(=O)NCC(=O)N[C@@H](CCC(N)=O)C(=O)N[C@@H](Cc1ccccc1)C(=O)N[C@@H](C)C(=O)O [mC15] (H-AGEDPHGYFLPGQFA-OH; N-terminus and C-terminus assumed) , what is its reported pIC50?
Resp: < 5.00

* * *

Molecular target: GPR1 (Homo sapiens, UniProt P46091)
Construct: host or cells: CHO
Sequence (P46091 1-355): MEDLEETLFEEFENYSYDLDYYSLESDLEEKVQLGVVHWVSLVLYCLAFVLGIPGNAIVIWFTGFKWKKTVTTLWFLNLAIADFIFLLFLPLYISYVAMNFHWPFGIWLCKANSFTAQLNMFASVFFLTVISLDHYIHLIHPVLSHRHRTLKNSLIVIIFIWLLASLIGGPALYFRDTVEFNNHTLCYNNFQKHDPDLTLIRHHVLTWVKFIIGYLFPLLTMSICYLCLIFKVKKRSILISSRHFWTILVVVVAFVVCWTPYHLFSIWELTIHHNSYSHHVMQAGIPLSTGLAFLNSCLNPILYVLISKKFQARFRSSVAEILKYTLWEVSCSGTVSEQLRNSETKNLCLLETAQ
Assay: PathHunter β-Arrestin assay, GPR1, agonist and antagonist mode
Format: cell-based
Settings: GPR1; antagonist mode, chemerin at EC80
Peptide text beside a SMILES is read from it.
Recorded measurements of % Max Inhibition, one per entry
Field: numeric (%). Do not append units.

# annotated cases, reported % Max Inhibition shown
Compound	Tested on	Recorded value
CC(C)C[C@H](NC(=O)[C@H](Cc1ccccc1)NC(=O)[C@H](Cc1ccc(O)cc1)NC(=O)CNC(=O)[C@H](Cc1c[nH]cn1)NC(=O)[C@@H]1CCCN1C(=O)[C@H](CC(=O)O)NC(=O)[C@H](CCC(=O)O)NC(=O)CNC(=O)[C@H](C)N)C(=O)N1CCC[C@H]1C(=O)NCC(=O)N[C@@H](CCC(N)=O)C(=O)N[C@@H](Cc1ccccc1)C(=O)N[C@@H](C)C(=O)O [mC15] (H-AGEDPHGYFLPGQFA-OH; N-terminus and C-terminus assumed)	GPR1 (Homo sapiens, UniProt P46091)	0
C[C@H](N)C(=O)NCC(=O)N[C@@H](CCC(=O)O)C(=O)N[C@@H](CC(=O)O)C(=O)N1CCC[C@H]1C(=O)N[C@@H](Cc1c[nH]cn1)C(=O)N[C@@H](CO)C(=O)N[C@@H](Cc1ccccc1)C(=O)N[C@@H](Cc1ccc(O)cc1)C(=O)N[C@@H](Cc1ccccc1)C(=O)N1CCC[C@H]1C(=O)NCC(=O)N[C@@H](CCC(N)=O)C(=O)N[C@@H](Cc1ccccc1)C(=O)N[C@@H](C)C(=O)N[C@@H](Cc1ccccc1)C(=O)N[C@@H](CO)C(=O)O [C17 (human)] (H-AGEDPHSFYFPGQFAFS-OH; N-terminus and C-terminus assumed)	GPR1 (Homo sapiens, UniProt P46091)	0
C[C@H](N)C(=O)NCC(=O)N[C@@H](CCC(=O)O)C(=O)N[C@@H](CC(=O)O)C(=O)N1CCC[C@H]1C(=O)N[C@@H](Cc1c[nH]cn1)C(=O)N[C@@H](CO)C(=O)N[C@@H](Cc1ccccc1)C(=O)N[C@@H](Cc1ccc(O)cc1)C(=O)N[C@@H](Cc1ccccc1)C(=O)N1CCC[C@H]1C(=O)NCC(=O)N[C@@H](CCC(N)=O)C(=O)N[C@@H](Cc1ccccc1)C(=O)N[C@@H](C)C(=O)O [C15 (human)] (H-AGEDPHSFYFPGQFA-OH; N-terminus and C-terminus assumed)	GPR1 (Homo sapiens, UniProt P46091)	0

Req: What value of % Max Inhibition has been recorded for this entry: C[C@H](N)C(=O)NCC(=O)N[C@@H](CCC(=O)O)C(=O)N[C@@H](CC(=O)O)C(=O)N1CCC[C@H]1C(=O)N[C@@H](Cc1c[nH]cn1)C(=O)N[C@@H](CO)C(=O)N[C@@H](Cc1ccccc1)C(=O)N[C@@H](Cc1ccc(O)cc1)C(=O)N[C@@H](Cc1ccccc1)C(=O)N1CCC[C@H]1C(=O)NCC(=O)N[C@@H](CCC(N)=O)C(=O)N[C@@H](Cc1ccccc1)C(=O)N[C@@H](C)C(=O)N[C@@H](Cc1ccccc1)C(=O)O [C16 (human)] (H-AGEDPHSFYFPGQFAF-OH; N-terminus and C-terminus assumed)
Resp: 0
